Molecular target: αvβ3 integrin (Homo sapiens, UniProt P05106+P06756)
Construct: purchased Millipore-Chemicon, Temecula, CA, USA
Sequence (P06756 31-889 limits assumed): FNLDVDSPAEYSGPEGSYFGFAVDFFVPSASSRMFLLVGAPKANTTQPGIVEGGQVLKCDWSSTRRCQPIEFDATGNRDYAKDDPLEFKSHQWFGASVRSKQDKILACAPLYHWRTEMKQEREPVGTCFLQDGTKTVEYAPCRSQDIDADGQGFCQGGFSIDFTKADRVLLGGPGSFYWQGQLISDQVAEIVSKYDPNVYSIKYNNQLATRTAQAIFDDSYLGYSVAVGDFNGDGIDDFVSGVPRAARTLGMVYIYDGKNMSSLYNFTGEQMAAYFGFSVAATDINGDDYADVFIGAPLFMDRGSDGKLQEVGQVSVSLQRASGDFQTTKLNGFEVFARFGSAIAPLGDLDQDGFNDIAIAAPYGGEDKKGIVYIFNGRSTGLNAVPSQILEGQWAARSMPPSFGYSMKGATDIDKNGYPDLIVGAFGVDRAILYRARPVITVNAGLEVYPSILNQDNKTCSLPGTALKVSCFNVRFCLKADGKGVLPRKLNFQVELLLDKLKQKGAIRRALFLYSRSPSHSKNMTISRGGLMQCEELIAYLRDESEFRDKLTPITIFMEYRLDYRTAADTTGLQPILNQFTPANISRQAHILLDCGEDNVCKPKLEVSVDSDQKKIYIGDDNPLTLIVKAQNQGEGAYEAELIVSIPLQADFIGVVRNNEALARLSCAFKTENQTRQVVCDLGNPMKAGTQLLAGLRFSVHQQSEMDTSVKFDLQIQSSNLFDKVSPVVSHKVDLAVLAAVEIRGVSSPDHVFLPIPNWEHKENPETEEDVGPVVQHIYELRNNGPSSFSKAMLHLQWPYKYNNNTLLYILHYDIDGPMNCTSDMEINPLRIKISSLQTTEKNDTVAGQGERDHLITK
Sequence (P06756 891-1048 partner limits assumed): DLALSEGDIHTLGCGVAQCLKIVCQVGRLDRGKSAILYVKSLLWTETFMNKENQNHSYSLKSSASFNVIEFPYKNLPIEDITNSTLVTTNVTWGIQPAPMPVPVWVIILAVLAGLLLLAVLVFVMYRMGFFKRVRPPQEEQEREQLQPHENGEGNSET
Sequence (P05106 27-788): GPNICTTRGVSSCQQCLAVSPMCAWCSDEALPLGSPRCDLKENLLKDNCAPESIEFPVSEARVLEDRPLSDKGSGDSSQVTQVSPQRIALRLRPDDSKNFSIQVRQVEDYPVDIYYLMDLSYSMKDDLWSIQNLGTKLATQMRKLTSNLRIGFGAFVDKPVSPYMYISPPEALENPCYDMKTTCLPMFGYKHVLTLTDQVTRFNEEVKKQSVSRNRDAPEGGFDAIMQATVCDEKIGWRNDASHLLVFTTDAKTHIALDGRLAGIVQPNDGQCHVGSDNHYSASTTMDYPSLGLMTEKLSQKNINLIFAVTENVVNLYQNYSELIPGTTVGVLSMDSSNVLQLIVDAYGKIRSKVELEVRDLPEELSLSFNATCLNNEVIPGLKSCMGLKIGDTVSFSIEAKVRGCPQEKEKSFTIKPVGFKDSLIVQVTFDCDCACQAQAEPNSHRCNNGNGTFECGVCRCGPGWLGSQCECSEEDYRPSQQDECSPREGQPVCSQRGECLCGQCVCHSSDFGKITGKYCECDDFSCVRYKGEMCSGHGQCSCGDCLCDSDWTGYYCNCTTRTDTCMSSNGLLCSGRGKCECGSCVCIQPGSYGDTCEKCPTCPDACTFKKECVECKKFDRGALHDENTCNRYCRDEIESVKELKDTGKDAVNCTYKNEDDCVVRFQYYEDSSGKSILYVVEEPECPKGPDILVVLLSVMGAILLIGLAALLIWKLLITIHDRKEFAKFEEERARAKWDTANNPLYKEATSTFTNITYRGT
Test: Binding affinity for immobilized αvβ3 integrin, displacement of [125I]c(RGDyV)
Conditions: isolated αvβ3 integrin coated on 96-well plates, radioligand [125I]c(RGDyV), 0.001 to 100 nM peptide, three independent measurements
Experimental: In vitro binding affinities of FSC-(RGD)3 and cyclo(-Arg-Gly-Asp-DTyr-Val-) (c(RGDyV)) as control were determined by using isolated αvβ3 integrin (Millipore-Chemicon, Temecula, CA, USA) and ^125I labeled c(RGDyV) as radioligand. The detailed procedure can be found in [16]. […] IC50 values were determined by fitting the percent inhibition using OriginPro 8.5 software (Northhampton, MA, USA). […]
reportedEndpoint: pIC50
Scale for pIC50: -log10 of concentration given in mol/L; no unit attached.

// recorded pIC50 for CC(C)[C@@H]1NC(=O)[C@@H](Cc2ccc(O)cc2)NC(=O)[C@H](CC(=O)O)NC(=O)CNC(=O)[C@H](CCCNC(=N)N)NC1=O [c(RGDyV), cyclo(-Arg-Gly-Asp-DTyr-Val-)] : 8.49
